# assayed_system: human full length Hsp90 (Homo sapiens)
# Construct: amino acid residues 1 to 732 of human Hsp90 (GenBank: BC121062.2); made in house; host or cells: E. coli BL21DE3 (pET15b)
# measurement_notes: Fluorescence polarization Hsp90 competitive binding assay (GM-FITC displacement)
# assay_context: Table 1; 50 nM Hsp90, 9 nM GM-FITC; read-out: Biochemical Potency IC50
quantity_measured: pIC50
Remember the convention: pIC50 equals -log10 of concentration in molar.

Consider the following illustrative entries.
{"molecular_string": "CCN(Cc1ncc(C)c(OC)c1C)c1cc(Cl)nc(N)n1", "recorded_number": 5.94}
{"molecular_string": "COc1c(C)cnc(CNc2cc(Cl)nc(N)n2)c1C", "recorded_number": 5.12}
{"molecular_string": "COc1c(C)cnc(CN(CCc2ccc(F)cc2)c2cc(Cl)nc(N)n2)c1C", "recorded_number": 7.00}

Problem: So what's the measured pIC50 for this one? COc1c(C)cnc(CN(Cc2ccccc2)c2cc(Cl)nc(N)n2)c1C
Solution: 5.66
